molecular target: UniProtKB Q5S007; assay: LRRK2 kinase activity in vitro assay; format: biochemical
Provide the recorded pIC50 for the entries that follow.
One number for each entry, as −log10 of the molar value.

[
  {
    "compound": "CCOc1cc(C(=O)N2CCC(N3CCN(C)CC3)CC2)ccc1Nc1ncc2c(n1)N(S(C)(=O)=O)c1ccccc1C(=O)N2C [AX15836, reference compound]",
    "pIC50": 6.03
  }
]

Please examine the following record next.
// query Form field: pIC50 recorded for COc1cc(C(=O)N2CCC(N3CCN(C)CC3)CC2)ccc1Nc1ncc2c(n1)N(C)c1ccccc1C(=O)N2C [XMD11–50 (LRRK2-IN-1)] with UniProtKB Q5S007 (enter value)
// result 8.47

----------
target: BRD4 (BD1) (Homo sapiens); assay: BRD4-1 AlphaScreen binding assay
measurement.label: pIC50
One number for each entry, as −log10 of the molar value.

// query Can you look up the measured pIC50 of CCOc1cc(C(=O)N2CCC(N3CCN(C)CC3)CC2)ccc1Nc1ncc2c(n1)N(C1CCCC1)c1ccccc1C(=O)N2C [XMD17–109 (ERK5-IN-1), reference compound] for me?
// result 6.17

----------
tested on: ERK5; assay: Cellular assay of ERK5; format: cell-based, Human; details: read-out: Cellular EC50 (ERK5); EGF-stimulated autophosphorylation of ERK5 in Hela cells, average of 2 replicates ± SD
measurement.label: pEC50
Numbers only, as −log10 of the molar value.

// query Can you look up the measured pEC50 of CCC(C)N1c2ccccc2C(=O)N(C)c2cnc(Nc3ccc(C(=O)N4CCC(N5CCN(C)CC5)CC4)cc3OC)nc21 (stereo not shown) for me?
// result 7.70

----------
target: BRD4 (BD1) (Homo sapiens, UniProt O60885); assay: BRD4-1 AlphaScreen binding assay; conditions: read-out: Biochemical IC50 (BRD4, μM) b; AlphaScreen, University of Oxford, average of 4 replicates ± SD
Provide the recorded IC50 for the entries that follow.
Give bare numbers, in µM.

[
  {
    "compound": "CC(C)Oc1cc(C(=O)N2CCC(N3CCN(C)CC3)CC2)ccc1Nc1ccc2c(n1)N(C1CCCC1)c1ccccc1C(=O)N2C [JWG-115]",
    "IC50, µM": 1.1
  }
]

Please examine the following record next.
// query Can you look up the measured IC50 of CCC(C)N1c2ccccc2C(=O)N(C)c2cnc(Nc3ccc(C(=O)N4CCC(N5CCN(C)CC5)CC4)cc3OC)nc21 (centres unmarked) [JWG-071] for me?
// result 6.31

----------
biological target: LRRK2 (Homo sapiens, UniProt Q5S007); assay: LRRK2 kinase activity in vitro assay; format: biochemical; settings: read-out: Enzymatic IC50 (LRRK2); Adapta assay format, average of 2 replicates ± SD
Sequence (Q5S007 whole entry): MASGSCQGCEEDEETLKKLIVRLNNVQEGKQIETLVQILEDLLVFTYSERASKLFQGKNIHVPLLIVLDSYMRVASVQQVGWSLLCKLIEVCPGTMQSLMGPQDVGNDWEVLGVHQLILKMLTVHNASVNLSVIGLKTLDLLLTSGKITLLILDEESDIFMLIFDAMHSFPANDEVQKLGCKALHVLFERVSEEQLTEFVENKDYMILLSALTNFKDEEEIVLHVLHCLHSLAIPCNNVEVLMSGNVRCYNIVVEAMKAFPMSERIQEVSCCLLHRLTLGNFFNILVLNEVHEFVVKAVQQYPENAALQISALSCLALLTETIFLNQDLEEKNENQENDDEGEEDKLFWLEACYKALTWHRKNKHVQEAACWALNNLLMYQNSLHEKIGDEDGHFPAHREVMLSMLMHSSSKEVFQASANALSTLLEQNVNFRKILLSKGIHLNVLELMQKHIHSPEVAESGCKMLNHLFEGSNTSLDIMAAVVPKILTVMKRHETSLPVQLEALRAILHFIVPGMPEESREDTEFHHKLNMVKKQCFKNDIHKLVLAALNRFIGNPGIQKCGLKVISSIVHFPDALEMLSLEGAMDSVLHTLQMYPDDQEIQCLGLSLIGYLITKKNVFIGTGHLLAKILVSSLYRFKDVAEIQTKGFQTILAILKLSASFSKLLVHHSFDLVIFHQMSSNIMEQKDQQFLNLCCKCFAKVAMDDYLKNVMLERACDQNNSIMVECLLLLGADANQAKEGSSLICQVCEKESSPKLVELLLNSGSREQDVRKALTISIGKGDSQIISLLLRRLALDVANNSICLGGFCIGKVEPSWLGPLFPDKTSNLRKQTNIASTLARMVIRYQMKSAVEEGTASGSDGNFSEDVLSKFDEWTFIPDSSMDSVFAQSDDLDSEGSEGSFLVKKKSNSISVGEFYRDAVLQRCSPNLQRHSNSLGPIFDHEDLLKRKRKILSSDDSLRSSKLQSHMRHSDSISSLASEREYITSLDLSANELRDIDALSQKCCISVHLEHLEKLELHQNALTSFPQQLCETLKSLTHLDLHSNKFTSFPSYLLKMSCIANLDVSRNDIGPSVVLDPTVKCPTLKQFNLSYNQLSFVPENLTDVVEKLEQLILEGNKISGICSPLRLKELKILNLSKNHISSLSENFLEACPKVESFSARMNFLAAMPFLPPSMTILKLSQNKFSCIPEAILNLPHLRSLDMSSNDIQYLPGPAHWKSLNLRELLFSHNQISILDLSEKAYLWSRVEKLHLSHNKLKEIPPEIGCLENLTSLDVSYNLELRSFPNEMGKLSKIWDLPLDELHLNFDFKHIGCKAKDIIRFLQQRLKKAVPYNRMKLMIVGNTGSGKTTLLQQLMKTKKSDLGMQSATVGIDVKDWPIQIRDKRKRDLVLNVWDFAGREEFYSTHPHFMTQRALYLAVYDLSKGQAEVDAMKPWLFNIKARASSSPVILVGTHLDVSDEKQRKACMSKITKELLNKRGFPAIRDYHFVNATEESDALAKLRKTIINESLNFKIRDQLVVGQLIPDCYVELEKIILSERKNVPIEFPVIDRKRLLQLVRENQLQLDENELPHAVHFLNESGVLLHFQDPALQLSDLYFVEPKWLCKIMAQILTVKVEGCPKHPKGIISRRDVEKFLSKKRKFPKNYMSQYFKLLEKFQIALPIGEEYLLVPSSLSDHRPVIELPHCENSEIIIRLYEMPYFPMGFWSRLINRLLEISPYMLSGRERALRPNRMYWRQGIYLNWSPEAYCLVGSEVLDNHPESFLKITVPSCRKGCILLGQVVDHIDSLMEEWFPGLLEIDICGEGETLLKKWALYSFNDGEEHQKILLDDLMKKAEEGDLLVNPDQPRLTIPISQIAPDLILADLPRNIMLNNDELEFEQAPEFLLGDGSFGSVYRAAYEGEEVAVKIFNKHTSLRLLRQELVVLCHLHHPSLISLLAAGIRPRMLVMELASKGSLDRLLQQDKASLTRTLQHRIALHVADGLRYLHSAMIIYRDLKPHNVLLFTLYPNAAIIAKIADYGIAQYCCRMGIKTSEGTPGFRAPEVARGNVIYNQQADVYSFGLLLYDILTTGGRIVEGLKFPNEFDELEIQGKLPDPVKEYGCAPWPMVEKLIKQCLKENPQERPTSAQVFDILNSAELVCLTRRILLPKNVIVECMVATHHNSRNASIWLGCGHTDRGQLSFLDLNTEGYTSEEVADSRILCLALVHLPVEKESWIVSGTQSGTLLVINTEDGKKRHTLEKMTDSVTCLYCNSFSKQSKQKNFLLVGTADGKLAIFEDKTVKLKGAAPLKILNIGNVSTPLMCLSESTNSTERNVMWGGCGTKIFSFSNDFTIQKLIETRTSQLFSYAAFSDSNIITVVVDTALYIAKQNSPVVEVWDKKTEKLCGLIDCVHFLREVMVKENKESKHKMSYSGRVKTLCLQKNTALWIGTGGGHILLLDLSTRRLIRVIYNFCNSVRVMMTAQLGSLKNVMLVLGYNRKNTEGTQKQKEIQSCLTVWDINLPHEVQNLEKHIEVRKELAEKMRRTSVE
measurement.label: pIC50
Answers are plain numbers, as −log10 of the molar value.

// query Form field: pIC50 recorded for CCC(C)N1c2ccccc2C(=O)N(C)c2cnc(Nc3ccc(C(=O)N4CCC(N5CCN(C)CC5)CC4)cc3OC)nc21 (centres unmarked) with LRRK2 (Homo sapiens, UniProt Q5S007) (enter value)
// result 6.96

Reference source: paper PMC6333101
